The reported measurements were obtained from PubChem BioAssay.

EXPERIMENT SUMMARY: splicing luciferase reporter signal modulators, primary screen, spliceosome inhibition project, cell-based, HEK293, splice +/- reporter (AID 1101);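 further: HEK293 cells carrying a splicing-competent luciferase reporter gene; test concentration not given here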
CONDITION INFO: luminescence, 24 h, higher = more signal, called active from +8 up or from −8 down
Provide the reported z-score of each item.
No unit in the answer, please; the number alone is enough.

q: Answer with the recorded z-score for the molecule listed here: Cc1ccccc1C(O)C1C=CC2C(=O)N(c3ccccc3)C(=O)C2N1Nc1ccc([N+](=O)[O-])cc1 (centres undefined)
a: -0.0433

q: Fill in reported z-score for this entry: C=CCC(OC(C)=O)[C@@H]1[C@@H](N(Cc2ccc(-c3ccccc3)cc2)C(=O)c2ccc(C)cc2)c2cc(OCCCO)ccc2N1C(=O)Cc1ccc2ccccc2c1 (some centres undefined)
a: -1.84

q: Using known records, supply z-score for O=c1cccc(-c2ccc(F)cc2)o1
a: 0.362

q: Give z-score for the following molecule: CCCCCN1CC=CC23O[C@@H]4C=CCOC(=O)[C@@H]4[C@H]2C(=O)N(CCO)[C@@H]3C1=O (some centres undefined)
a: 0.374
